# subject of test: hNLRP3 (Homo sapiens, UniProt Q96P20)
# Construct: THP-1 cells were purchased from the American Type Culture Collection
# Sequence (Q96P20 whole entry): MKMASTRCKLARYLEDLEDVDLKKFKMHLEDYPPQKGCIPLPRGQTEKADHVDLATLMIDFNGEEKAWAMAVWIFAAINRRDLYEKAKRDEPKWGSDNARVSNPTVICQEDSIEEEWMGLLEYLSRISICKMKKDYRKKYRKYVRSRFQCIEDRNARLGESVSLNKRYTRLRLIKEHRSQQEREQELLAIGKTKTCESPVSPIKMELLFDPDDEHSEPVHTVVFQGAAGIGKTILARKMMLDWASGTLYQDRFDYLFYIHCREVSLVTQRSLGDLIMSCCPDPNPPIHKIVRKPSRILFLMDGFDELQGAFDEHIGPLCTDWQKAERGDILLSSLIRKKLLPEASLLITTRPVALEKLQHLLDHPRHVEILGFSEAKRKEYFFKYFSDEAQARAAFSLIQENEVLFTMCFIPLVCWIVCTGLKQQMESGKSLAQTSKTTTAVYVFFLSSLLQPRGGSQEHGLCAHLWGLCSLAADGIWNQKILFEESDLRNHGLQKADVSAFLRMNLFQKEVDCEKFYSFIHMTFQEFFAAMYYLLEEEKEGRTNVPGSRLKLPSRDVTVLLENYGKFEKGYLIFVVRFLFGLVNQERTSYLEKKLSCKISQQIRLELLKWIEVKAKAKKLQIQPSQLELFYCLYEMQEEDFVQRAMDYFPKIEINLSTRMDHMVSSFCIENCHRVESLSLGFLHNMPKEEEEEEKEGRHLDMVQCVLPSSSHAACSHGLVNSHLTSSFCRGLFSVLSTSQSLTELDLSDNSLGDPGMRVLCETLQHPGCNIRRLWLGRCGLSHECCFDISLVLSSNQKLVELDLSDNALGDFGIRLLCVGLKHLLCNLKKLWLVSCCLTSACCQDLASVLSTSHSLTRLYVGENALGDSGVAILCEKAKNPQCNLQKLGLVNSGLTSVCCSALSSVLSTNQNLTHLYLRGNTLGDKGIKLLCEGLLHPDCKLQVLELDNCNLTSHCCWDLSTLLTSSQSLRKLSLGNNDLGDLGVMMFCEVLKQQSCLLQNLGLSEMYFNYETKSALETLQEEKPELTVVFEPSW
# test summary: IL-1β production in PMA-differentiated THP-1 cells stimulated with gramicidin (hTHP-1 assay)
# test settings: read-out: NLRP3 Antagonist, hNLRP3 (THP-1, IL-1b) Normalized: GeoMean IC50
Recorded IC50, one value per entry.

Look at this compound and give its reported IC50. CC1(C)CS(=O)(=NC(=O)Nc2c3c(cc4c2CCC4)CCC3)NC1=O (stereo not drawn) [Compound 102] 200 to 1000 nM

Look at this compound and give its reported IC50. O=C(N=S1(=O)CC2(COC2)C(=O)N1)Nc1c2c(cc3c1CCC3)CCC2 (single isomer, unassigned) [Compound 132b] 5000 to 30000 nM

Look at this compound and give its reported IC50. CC(C)(O)c1ccc2c(c1)S(=O)(=NC(=O)Nc1c3c(cc4c1CC4)CCC3)NC2=O (stereo not drawn) [Compound 112] 200 to 1000 nM

###

# subject of test: hNLRP3 (Homo sapiens, UniProt Q96P20)
# Construct: THP-1 cells were purchased from the American Type Culture Collection
# test summary: IL-1β production in PMA-differentiated THP-1 cells stimulated with gramicidin (hTHP-1 assay)
# test settings: read-out: NLRP3 Antagonist, hNLRP3 (THP-1, IL-1b) Normalized: GeoMean IC50
Recorded IC50, one value per entry.

Please review the following examples before continuing.
>>> df
                                   compound       result
0  CC(C)(O)c1ccc2c(c1)S(=O)(=NC(=O)Nc1c3c(nc(C4CC4)c1C1CC1)CCC3)NC2=O (single isomer, unassigned) [Compound 106b]      > 30 µM
1  CN(C)Cc1ccc2c(c1)S(=O)(=NC(=O)Nc1c3c(cc4c1CCC4)CCC3)NC2 (single isomer, unassigned) [Compound 133a]   5 to 30 µM
2  O=C(N=S1(=O)NC(=O)c2ccccc21)Nc1c2c(cc3c1CCC3)CCC2 (single isomer, unassigned) [Compound 129a]  0.2 to 1 µM
3  O=C(N=S1(=O)NC(=O)c2ccc(-n3cccn3)cc21)Nc1c2c(cc3c1CCC3)CCC2 (stereo not shown) [Compound 211]      > 30 µM
4  CC1(C)CS(=O)(=NC(=O)Nc2c3c(cc4c2CCC4)CCC3)NC1=O (single isomer, unassigned) [Compound 102a]  0.2 to 1 µM

Look at this compound and give its reported IC50. CN(C)C(=O)c1ccc2c(c1)S(=O)(=NC(=O)Nc1c3c(cc4c1CCC4)CCC3)NC2=O (stereo not shown) 5 to 30 µM

Look at this compound and give its reported IC50. O=C(N=S1(=O)CCC(Cc2ccccc2)C(=O)N1)Nc1c2c(cc3c1CCC3)CCC2 (stereo not shown) 5 to 30 µM

Look at this compound and give its reported IC50. CC(C)c1cc2c(c(C(C)C)c1CC(=O)N=S1(=O)NC(=O)c3ccc(C(C)(C)O)cc31)COC2 (single isomer, unassigned) [Compound 104a] > 30 µM

Look at this compound and give its reported IC50. COC(=O)c1ccc2c(c1)S(=O)(=NC(=O)Nc1c3c(cc4c1CCC4)CCC3)NC2=O (single isomer, unassigned) [Compound 134a] > 30 µM

Look at this compound and give its reported IC50. CC(C)(O)c1ccc2c(c1)S(=O)(=NC(=O)Nc1c3c(nc(C4CC4)c1C1CC1)CCC3)NC2=O (stereo not shown) [Compound 106] 1 to 5 µM

Look at this compound and give its reported IC50. Cc1c(C(F)(F)F)nc2c(c1NC(=O)N=S1(=O)NC(=O)c3ccc(C(C)(C)O)cc31)CCC2 (single isomer, unassigned) [Compound 108b] > 30 µM

Look at this compound and give its reported IC50. O=C(N=S1(=O)CC2(CN1)COC2)Nc1c2c(cc3c1CCC3)CCC2 (single isomer, unassigned) [Compound 139a] > 30 µM

Look at this compound and give its reported IC50. CC(C)(O)c1ccc2c(c1)S(=O)(=NC(=O)Nc1c3c(nc4c1CCC4(C)C)CCC3)NC2=O (single isomer, unassigned) [Compound 137] 0.2 to 1 µM

Source: patent US12134611B2
